MEASURED_ON: T1, O2-bN
T1 chain: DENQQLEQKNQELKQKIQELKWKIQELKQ
PROTOCOL_DETAILS: two-hybrid library CCNG1;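 also: natural log of median RNA to DNA barcode read ratio; higher means stronger binding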
READOUT_TYPE: interaction score

DEIQQLEQKIQELKQKNQELKWKNQELKQ [O12-bN]	-0.846
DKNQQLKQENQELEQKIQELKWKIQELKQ [O10-bN]	0.523
DKIQQLKQKNQELKQEIQELEWKNQELKQ [O16-bN]	-0.944
DENQQLEQKNQELKQKIQELKWKIQELKQ [O2-bN]	-0.646
